The measurements presented in this section are drawn from patent US11214803B2.

Here, each record is paired with measured PT data.
Assay: Cynomolgus monkey tolerability, coagulation (Example 34)
Assay type: in vivo
Details: cynomolgus monkeys, 35 mg/kg subcutaneously, day 44
Write the value in s as a bare number.

Example substances with recorded PT:
{"columns": ["SUBSTANCE", "ENDPOINT UNIT", "PT"],
 "data": [
  ["1198439 (AGTGTATGTCAGAAGA; sugar, 5-methylcytosine, phosphorothioate modifications, further chemistry not given here) [compound 1198439]", "s", 10],
  ["1198728 (TATTAGAGTATGTGGC; modified gapmer, further chemistry not given here) [compound 1198728]", "s", 9],
  ["1197270 (TTAAAGTGTATGTCAG; cEt gapmer with 2'-OMe nucleoside, phosphorothioate, further chemistry not given here) [compound 1197270]", "s", 10]
]}

# evaluate next
Query: Item 1076453 (GTAATATTGCAATCTG; 3-10-3 cEt gapmer, further chemistry not given here) [compound 1076453] has what recorded PT?
Result: 9
